// data source = ChEMBL document CHEMBL1649268

System: Streptococcus agalactiae
Assay Protocol: Antimicrobial activity against erythromycin-susceptible Streptococcus agalactiae clinical isolates by broth microdilution method
Assay type: functional

Compound: CCC[C@@H]1C[C@@H](C(=O)N[C@@H]([C@H]2O[C@H](SC)[C@H](O)[C@@H](O)[C@H]2O)[C@H](C)Cl)N(C)C1 [CLINDAMYCIN]
Units Label: µg/mL
MIC90: 0.06
--
Compound: CC1(C)S[C@@H]2[C@H](NC(=O)Cc3ccccc3)C(=O)N2[C@H]1C(=O)O [PENICILLIN G]
Units Label: µg/mL
MIC90: 0.06
--
Compound: CN[C@H](CC(C)C)C(=O)N[C@H]1C(=O)N[C@@H](CC(N)=O)C(=O)N[C@H]2C(=O)N[C@H]3C(=O)N[C@H](C(=O)N[C@H](C(=O)O)c4cc(O)cc(O)c4-c4cc3ccc4O)[C@H](O)c3ccc(c(Cl)c3)Oc3cc2cc(c3O[C@@H]2O[C@H](CO)[C@@H](O)[C@H](O)[C@H]2O[C@H]2C[C@](C)(N)[C@H](O)[C@H](C)O2)Oc2ccc(cc2Cl)[C@H]1O [VANCOMYCIN]
Units Label: µg/mL
MIC90: 0.5
--
Compound: CN[C@H](CC(C)C)C(=O)N[C@H]1C(=O)N[C@@H](CC(N)=O)C(=O)N[C@H]2C(=O)N[C@H]3C(=O)N[C@H](C(=O)N[C@H](C(=O)O)c4cc(O)cc(O)c4-c4cc3ccc4O)[C@H](O[C@H]3C[C@](C)(N)[C@@H](O)[C@H](C)O3)c3ccc(c(Cl)c3)Oc3cc2cc(c3O[C@@H]2O[C@H](CO)[C@@H](O)[C@H](O)[C@H]2O[C@H]2C[C@](C)(NCc3ccc(-c4ccc(Cl)cc4)cc3)[C@@H](O)[C@H](C)O2)Oc2ccc(cc2Cl)[C@H]1O [ORITAVANCIN]
Units Label: µg/mL
MIC90: 0.25
--
Compound: CC[C@H]1OC(=O)[C@H](C)[C@@H](O[C@H]2C[C@@](C)(OC)[C@@H](O)[C@H](C)O2)[C@H](C)[C@@H](O[C@@H]2O[C@H](C)C[C@H](N(C)C)[C@H]2O)[C@](C)(O)C[C@@H](C)C(=O)[C@H](C)[C@@H](O)[C@]1(C)O [ERYTHROMYCIN]
Units Label: µg/mL
MIC90: 0.06
--
Compound: C[C@H]1COc2c(N3CCN(C)CC3)c(F)cc3c(=O)c(C(=O)O)cn1c23.C[C@H]1COc2c(N3CCN(C)CC3)c(F)cc3c(=O)c(C(=O)O)cn1c23.O [LEVOFLOXACIN]
Units Label: µg/mL
MIC90: 1
